# System: alkaline phosphatase, intestinal [Bos taurus]
# Assay name: IAP enzyme activity enhancers – biochemical, bovine IAP, CDP-star luminescence, primary screen (AID 1016)
# Experimental conditions: purified bovine IAP, 30 min, at 20 µM
The whole screen tested about 200,000 compounds, of which about 330 (0.17%) were called active.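 The calls were made as follows: active = activation factor of 2 or more at 20 µM, a signal rise over negative controls twice the positive control's; inactive = the rest.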 Many of the other results were omitted from the sample, so actives are more common in it than they were.
Your response should consist of one outcome taken from class 1 for active, class 0 for inactive

Please indicate how the test categorized CN(C)CC1CCCCC1OC(=O)c1ccc(Cl)c(Cl)c1 (stereo not given) .
class 0

And then COP(=O)(OC)C(NC(=O)c1ccc(C)cc1)C(Cl)(Cl)Cl (stereo not given) , what is it?
class 0

And then CCOC(=O)C1SC2(C(F)(F)C(F)F)CC1(O)c1c(c(OC)c3occc3c1OC)O2 (stereo not given) , what is it?
class 0

And then Cc1cc(C)cc(NC(=S)NC2CC3CCCC(C2)N3Cc2cccs2)c1 (stereo not given) , what is it?
class 1

And then CN(C)C(=O)Oc1ccc(OCc2cccc[n+]2C)cc1 , what is it?
class 0
